# target_of_assay: KCNQ2/3 heteromultimers (Rattus norvegicus, UniProt O88943+O88944)
# Construct: endogenous in cells; host or cells: PC-12 cells differentiated with NGF-7s; no transfection described
# assay_text: cell-based Rb+ efflux assay in PC-12 cells
# measurement_parameters: Rb+ efflux cellular assay
Exercise: state measured EC50 for each of the compounds provided.

Request: Missing value: EC50, KCNQ2/3 heteromultimers (Rattus norvegicus, UniProt O88943+O88944), entry Cc1cc2c(c(C)c1NC(=O)CC(C)(C)C)CCCC2Nc1cccc(Cl)c1 (centres unmarked) [Example 9] . Fill in?
Result: 1 to 10 nM

Request: Missing value: EC50, KCNQ2/3 heteromultimers (Rattus norvegicus, UniProt O88943+O88944), entry Cc1cc2c(c(C)c1NC(=O)CC(C)(C)C)CCC2Nc1ccc(F)c(F)c1 (centres unmarked) [Example 21] . Fill in?
Result: 1 to 10 nM

Request: Missing value: EC50, KCNQ2/3 heteromultimers (Rattus norvegicus, UniProt O88943+O88944), entry Cc1cc2c(c(C)c1NC(=O)CC(C)(C)C)CCCC2Nc1ccc(C(F)(F)F)cc1 (centres unmarked) [Example 5] . Fill in?
Result: 1 to 10 nM

Request: Missing value: EC50, KCNQ2/3 heteromultimers (Rattus norvegicus, UniProt O88943+O88944), entry Cc1cc2c(c(C)c1NC(=O)CC(C)(C)C)CCC2Nc1cc(F)cc(F)c1 (centres unmarked) [Example 22] . Fill in?
Result: 1 to 10 nM

Request: Missing value: EC50, KCNQ2/3 heteromultimers (Rattus norvegicus, UniProt O88943+O88944), entry Cc1cc2c(c(C)c1NC(=O)CC(C)(C)C)CCCC2Nc1ccc(F)cc1 (single isomer, unassigned; (+)) [Example 4] . Fill in?
Result: 10 to 50 nM

Request: Missing value: EC50, KCNQ2/3 heteromultimers (Rattus norvegicus, UniProt O88943+O88944), entry Cc1cc2c(c(C)c1NC(=O)CC(C)(C)C)CCC2Nc1ccc(F)cc1 (single isomer, unassigned; (-)) [Example 12] . Fill in?
Result: ≤ 1 nM

Request: Missing value: EC50, KCNQ2/3 heteromultimers (Rattus norvegicus, UniProt O88943+O88944), entry Cc1cc2c(c(C)c1NC(=O)CC(C)(C)C)CCC2Nc1ccc(C(F)(F)F)nc1 (centres unmarked) [Example 24] . Fill in?
Result: 10 to 50 nM

Request: Missing value: EC50, KCNQ2/3 heteromultimers (Rattus norvegicus, UniProt O88943+O88944), entry Cc1cc2c(c(C)c1NC(=O)CC(C)(C)C)CCC2Nc1ccc(C(F)(F)F)cc1 (single isomer, unassigned; (-)) [Example 15] . Fill in?
Result: ≤ 1 nM

Request: Missing value: EC50, KCNQ2/3 heteromultimers (Rattus norvegicus, UniProt O88943+O88944), entry Cc1cc2c(c(C)c1NC(=O)CC(C)(C)C)CCCC2Nc1ccc(Cl)cc1 (centres unmarked) [Example 7] . Fill in?
Result: 1 to 10 nM

Request: Missing value: EC50, KCNQ2/3 heteromultimers (Rattus norvegicus, UniProt O88943+O88944), entry Cc1cc2c(c(C)c1NC(=O)CC(C)(C)C)CCC2Nc1ccc(Cl)cc1 (centres unmarked) [Example 17] . Fill in?
Result: ≤ 1 nM

Request: Missing value: EC50, KCNQ2/3 heteromultimers (Rattus norvegicus, UniProt O88943+O88944), entry Cc1cc2c(c(C)c1NC(=O)CC(C)(C)C)CCCC2Nc1ccc(F)cc1 (single isomer, unassigned; (-)) [Example 3] . Fill in?
Result: 1 to 10 nM

Request: Missing value: EC50, KCNQ2/3 heteromultimers (Rattus norvegicus, UniProt O88943+O88944), entry Cc1cc2c(c(C)c1NC(=O)CC(C)(C)C)CCCC2Nc1ccc(Br)cc1 (centres unmarked) [Example 8] . Fill in?
Result: 1 to 10 nM

Request: Missing value: EC50, KCNQ2/3 heteromultimers (Rattus norvegicus, UniProt O88943+O88944), entry Cc1c(Br)c2c(c(C)c1NC(=O)CC(C)(C)C)CCCC2Nc1ccc(C(F)(F)F)cc1 (centres unmarked) . Fill in?
Result: > 500 nM

Request: Missing value: EC50, KCNQ2/3 heteromultimers (Rattus norvegicus, UniProt O88943+O88944), entry Cc1cc2c(c(C)c1NC(=O)CC(C)(C)C)CCC2Nc1ccc(Br)cc1 (centres unmarked) [Example 18] . Fill in?
Result: ≤ 1 nM

Request: Missing value: EC50, KCNQ2/3 heteromultimers (Rattus norvegicus, UniProt O88943+O88944), entry Cc1cc2c(c(C)c1NC(=O)CC(C)(C)C)CCC2Nc1ccc(F)cc1 (centres unmarked) [Example 11] . Fill in?
Result: 1 to 10 nM

Request: Missing value: EC50, KCNQ2/3 heteromultimers (Rattus norvegicus, UniProt O88943+O88944), entry Cc1cc2c(c(C)c1NC(=O)CC(C)(C)C)CCC2Nc1cccc(Cl)c1 (centres unmarked) [Example 19] . Fill in?
Result: 1 to 10 nM

Request: Missing value: EC50, KCNQ2/3 heteromultimers (Rattus norvegicus, UniProt O88943+O88944), entry Cc1cc2c(c(C)c1NC(=O)CC(C)(C)C)CCCC2Nc1ccc(Cl)c(Cl)c1 (centres unmarked) [Example 6] . Fill in?
Result: 1 to 10 nM
